Tested on: ALT in blood
Assay: Suppression of LPS/D-galactosamine-induced hepatitis
Type: in vivo
Settings: Mus musculus, iv; dose 10 mg/kg, tail vein, 10 minutes before LPS/D-galactosamine; ALT in blood at 6 hours, male C57BL/6 mice
Procedure: Suppression of LPS/D-galactosamine-induced hepatitis LPS (5 μg/kg)D-galactosamine (500 mg/kg) in physiological saline was intraperitoneally injected to male C57BL/6 mice to induce hepatitis. Six hours after the injection of LPS/D-galactosamine in physiological saline, blood was taken from the mice orbital venosus plexus. Plasma was separated from the blood, and ALT in blood was determined by a biochemical analyzer. […]
y means recorded inhibition in vivo at 10 mg/kg is 40% or above; n means it is below 40%.

Q. Threshold query (inhibition in vivo at 10 mg/kg >= 40%) on CNCCCCOc1c(Cl)cc(C(=O)N[C@@H](Cc2ccccc2)C(=O)NCC(=O)O)c(O)c1Cl
A. n

Q. Threshold query (inhibition in vivo at 10 mg/kg >= 40%) on CCOC(=O)C(Cc1ccccc1)NC(=O)c1cc(Cl)c(OCCCCNC)c(Cl)c1O (stereo not shown)
A. y

Q. Threshold query (inhibition in vivo at 10 mg/kg >= 40%) on CNCCCCOc1c(Cl)cc(C(=O)N[C@@H](Cc2ccccc2)C(=O)OC)c(O)c1Cl.Cl [Example 1, hydrochloride]
A. y

Q. Threshold query (inhibition in vivo at 10 mg/kg >= 40%) on CNCCCCOc1c(Cl)cc(C(=O)N[C@@H](Cc2ccccc2)C(=O)OC)c(O)c1C
A. y

Q. Threshold query (inhibition in vivo at 10 mg/kg >= 40%) on COC(=O)[C@H](Cc1ccccc1)NC(=O)c1cc(Cl)c(OCCN2CCNC(C)C2)c(Cl)c1O (stereo partly shown)
A. y
